B1: ATL3 (parent)
chain: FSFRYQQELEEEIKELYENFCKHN

# Variants of: B1
# assay: protein stability index of a GFP-peptide fusion (GPS, HEK-293T) (PSI 1-6); higher = more stable;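 note: lentivirally expressed fusions sorted by FACS into six bins by GFP to DsRed ratio, PSI derived from sequencing read proportions per bin multiplied by bin number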
# test conditions: c terminus: a fixed tail appended
Overview of reported protein stability index across a group of variants:

- mutant code: "L16W"
  protein stability index: 2.03
- mutant code: "C21V"
  protein stability index: 2.62
- mutant code: "R4S"
  protein stability index: 2.1
- mutant code: "E12A"
  protein stability index: 1.97
- mutant code: "E12W"
  protein stability index: 2.04
- mutant code: "H23F"
  protein stability index: 2.19
- mutant code: "E8C"
  protein stability index: 2.11
- mutant code: "S2K"
  protein stability index: 2.58
- mutant code: "F3E"
  protein stability index: 3.04
- mutant code: "E11R"
  protein stability index: 1.98
- mutant code: "E15C"
  protein stability index: 1.67
- mutant code: "E8Y"
  protein stability index: 1.79
- mutant code: "E10N"
  protein stability index: 2.13
- mutant code: "K14E"
  protein stability index: 2.53
- mutant code: "E15D"
  protein stability index: 2.59
- mutant code: "E15Q"
  protein stability index: 1.91
- mutant code: "N24W"
  protein stability index: 2.12
- mutant code: "Q7H"
  protein stability index: 2.2
- mutant code: "F20L"
  protein stability index: 2.19
- mutant code: "E10P"
  protein stability index: 2.61
- mutant code: "Q6M"
  protein stability index: 2.08
- mutant code: "H23R"
  protein stability index: 1.86
- mutant code: "Y17P"
  protein stability index: 4.27
- mutant code: "N24F"
  protein stability index: 3.38
- mutant code: "E12K"
  protein stability index: 2.27
- mutant code: "S2C"
  protein stability index: 3.27
- mutant code: "Q7G"
  protein stability index: 3.13
- mutant code: "E15A"
  protein stability index: 1.38
- mutant code: "Q6D"
  protein stability index: 2.35
- mutant code: "N19L"
  protein stability index: 1.98
